TEST DESCRIPTION: Toxicity against HEK293 cells assessed as cell viability at 0.125 mM incubated for 48 hrs by EZ4U colorimetric assay
Type: cell-based
PROTOCOL CONDITIONS: human, read-out: Activity
QUANTITY NAME: viability at 48 h, 125 µM

{"SMILES INPUT": "O=C1NC(N2CCNCC2)=N/C1=C\\c1c2ccccc2cc2ccccc12", "VALUE OBSERVED": "91%"}

----------
System: Staphylococcus aureus
TEST DESCRIPTION: Resistance index, ratio of MIC for methicillin-resistant Staphylococcus aureus HEMSA to MIC for Staphylococcus aureus ATCC 25923
Type: functional
Documented Ratio across a set of molecules

{"MOLECULE": "NC[C@@H]1O[C@H](O[C@H]2[C@@H](O)[C@H](O[C@@H]3[C@@H](O)[C@H](N)C[C@H](N)[C@H]3O[C@H]3O[C@H](CN)[C@@H](O)[C@H](O)[C@H]3N)O[C@@H]2CO)[C@H](N)[C@@H](O)[C@@H]1O [FRAMYCETIN]", "CMP": "=", "Ratio": 240}
{"MOLECULE": "O=C1NC(N2CCNCC2)=N/C1=C\\c1c2ccccc2cc2ccccc12", "CMP": "=", "Ratio": 1}
{"MOLECULE": "O=C1NC(N2CCNCC2)=N/C1=C\\c1ccc2ccccc2c1", "CMP": "=", "Ratio": 2}
{"MOLECULE": "Cc1onc(-c2ccccc2)c1C(=O)N[C@@H]1C(=O)N2[C@@H]1SC(C)(C)[C@@H]2C(=O)O [OXACILLIN]", "CMP": ">", "Ratio": 1500}
{"MOLECULE": "CC1(C)S[C@@H]2[C@H](NC(=O)[C@H](N)c3ccccc3)C(=O)N2[C@H]1C(=O)O [AMPICILLIN]", "CMP": "=", "Ratio": 370}
{"MOLECULE": "O=C1NC(N2CCNCC2)=N/C1=C\\c1ccc2c(c1)Cc1ccccc1-2", "CMP": "=", "Ratio": 2}
{"MOLECULE": "O=C1NC(N2CCNCC2)=N/C1=C\\c1cc2ccccc2c2ccccc12", "CMP": "=", "Ratio": 8}
{"MOLECULE": "O=C(O)c1cn(C2CC2)c2cc(N3CCNCC3)c(F)cc2c1=O [CIPROFLOXACIN]", "CMP": "=", "Ratio": 37}
